Items are presented alongside their recorded EC50.
Biological target: hAHR (Homo sapiens)
Sequence (P35869 11-848): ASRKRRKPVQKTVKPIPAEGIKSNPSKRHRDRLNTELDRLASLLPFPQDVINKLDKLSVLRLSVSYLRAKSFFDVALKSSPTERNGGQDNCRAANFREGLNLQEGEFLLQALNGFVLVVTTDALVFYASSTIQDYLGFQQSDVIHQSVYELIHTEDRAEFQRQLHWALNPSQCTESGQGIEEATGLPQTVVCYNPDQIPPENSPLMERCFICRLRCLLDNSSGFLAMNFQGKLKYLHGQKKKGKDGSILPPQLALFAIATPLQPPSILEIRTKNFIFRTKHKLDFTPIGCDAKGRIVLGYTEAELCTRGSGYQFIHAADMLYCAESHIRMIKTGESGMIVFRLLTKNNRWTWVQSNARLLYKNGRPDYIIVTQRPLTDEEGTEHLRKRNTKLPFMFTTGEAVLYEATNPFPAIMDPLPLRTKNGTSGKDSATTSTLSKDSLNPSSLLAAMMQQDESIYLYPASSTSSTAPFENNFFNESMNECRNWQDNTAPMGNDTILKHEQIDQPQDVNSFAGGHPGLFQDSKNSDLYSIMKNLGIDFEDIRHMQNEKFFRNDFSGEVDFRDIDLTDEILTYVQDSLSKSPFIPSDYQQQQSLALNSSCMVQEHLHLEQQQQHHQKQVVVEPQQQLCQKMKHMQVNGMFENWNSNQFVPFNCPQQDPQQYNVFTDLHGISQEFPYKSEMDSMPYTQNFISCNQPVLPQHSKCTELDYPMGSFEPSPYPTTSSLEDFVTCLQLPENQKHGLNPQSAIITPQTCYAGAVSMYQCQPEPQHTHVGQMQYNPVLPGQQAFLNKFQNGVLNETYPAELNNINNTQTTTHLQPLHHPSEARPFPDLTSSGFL
Assay: hAHR nuclear translocation assay
Conditions: Jump-In T-REx HEK293 cells expressing AhR-EGFP; 45 min incubation; ratio of EGFP intensity in nuclear over cytosol; 20-point curve
Enter your answer as a number in nM; do not include the unit.

# annotated cases, reported EC50 shown
Short answer for `Cn1c2c(cc(C(=O)Nc3ccccc3)c1=O)CC(C)(C)CC2` : EC50 was 0.64

The compound CC1CCc2c1c(O)c(C(=O)Nc1cnsc1)c(=O)n2C (single isomer, unassigned) [Example 41] showed EC50 equal to 2.65

For this compound ( CC1CCc2c1cc(C(=O)Nc1nccs1)c(=O)n2C (centres unmarked) [Example 15] ), measured EC50 is 1.93

# EC50 of CC1CCc2c1cc(C(=O)NC1CCCC1)c(=O)n2C (centres unmarked) [Example 9] = 191

// next entry
Looking up CC1CCc2cc(C(=O)Nc3ccccc3)c(=O)n(C)c21 (centres unmarked) , I see its EC50 listed as 6.4

====

molecular target: hAHR (Homo sapiens); test: hAHR nuclear translocation assay; settings: Jump-In T-REx HEK293 cells expressing AhR-EGFP; 45 min incubation; ratio of EGFP intensity in nuclear over cytosol; 20-point curve
Let's look at some compounds and their measured pEC50.
pEC50 is defined as minus the log10 of a concentration measured in mol/L.

Worked examples follow.
Reported pEC50 for C[C@@H]1CCc2c1cc(C(=O)Nc1ncco1)c(=O)n2C [Example 74] was 7.72

Quick note, pEC50 for CCC1CCc2c1cc(C(=O)Nc1ncc(F)cn1)c(=O)n2C (single isomer, unassigned) [Example 115] landed at 8.53

In plain terms, Cn1c2c(c(O)c(C(=O)Nc3ccccc3)c1=O)CC(C)(C)CC2 [Example 110] has a documented pEC50 of 8.64

// Cn1c2c(cc(C(=O)Nc3ccc(F)cn3)c1=O)CC(C)(C)CC2 [Example 49] : pEC50 value = 8.69

response.value for CC1CCc2c1cc(C(=O)Nc1ncc(C(F)(F)F)cn1)c(=O)n2C (single isomer, unassigned) [Example 65] (field: pEC50) = 8.91

New cases:
Entry CC(C)C1CCc2c1cc(C(=O)Nc1ncc(F)cn1)c(=O)n2C (single isomer, unassigned) [Example 112] ; pEC50 = 9.06

The compound Cc1nc2ccc(NC(=O)c3cc4c(n(C)c3=O)CCC(C)(C)C4)cc2o1 [Example 50] showed pEC50 equal to 8.08

Record Cn1c2c(cc(C(=O)Nc3ncccn3)c1=O)CCCC2 [Example 103] . Reported pEC50: 7.57

====

Biological target: hAHR (Homo sapiens)
Assay: hAHR nuclear translocation assay
Settings: Jump-In T-REx HEK293 cells expressing AhR-EGFP; 45 min incubation; ratio of EGFP intensity in nuclear over cytosol; 20-point curve
Excerpt: Stable cell lines were established using Jump-In™ T-REx™ HEK293 Retargeting Kit (Life Technologies). hAhR cDNA was cloned into the pJTI R4 CMV-TO EGFP vector. The EGFP was cloned to the C-terminal of AHR to form AhR-EGFP chimera. […] The final DMSO concentration was 0.2%. […] The intensity of EGFP was quantitated by using OPERA PHENIX® or Operetta™ high content image system (Perkin Elmer) with 20× Water Objective and five field per well. […]
We begin with a simple list: items and their reported EC50.

Example cases with answers are listed next.
Notebook: `C[C@H]1CCc2c1cc(C(=O)Nc1ncc(Cl)cn1)c(=O)n2C` , EC50 read as 2.45 nM

Lab book: EC50 of C[C@@H]1CCc2c1c(O)c(C(=O)Nc1ncccn1)c(=O)n2C (single isomer, unassigned) noted as 7.79 nM

Entry CC1CCc2c1c(O)c(C(=O)Nc1ccccn1)c(=O)n2C (single isomer, unassigned) [Example 90] , EC50 reported as 2.89 nM

Let's switch to this compound now.
Recorded EC50 (compound CC1CCc2c1c(O)c(C(=O)Nc1ncccc1F)c(=O)n2C (single isomer, unassigned) [Example 92] ): 1.44 nM

====

Consider the following molecules and their measured EC50 readings.
Biological target: hAHR (Homo sapiens, UniProt P35869)
Construct: expressed in transfected cells
Sequence (P35869 11-848): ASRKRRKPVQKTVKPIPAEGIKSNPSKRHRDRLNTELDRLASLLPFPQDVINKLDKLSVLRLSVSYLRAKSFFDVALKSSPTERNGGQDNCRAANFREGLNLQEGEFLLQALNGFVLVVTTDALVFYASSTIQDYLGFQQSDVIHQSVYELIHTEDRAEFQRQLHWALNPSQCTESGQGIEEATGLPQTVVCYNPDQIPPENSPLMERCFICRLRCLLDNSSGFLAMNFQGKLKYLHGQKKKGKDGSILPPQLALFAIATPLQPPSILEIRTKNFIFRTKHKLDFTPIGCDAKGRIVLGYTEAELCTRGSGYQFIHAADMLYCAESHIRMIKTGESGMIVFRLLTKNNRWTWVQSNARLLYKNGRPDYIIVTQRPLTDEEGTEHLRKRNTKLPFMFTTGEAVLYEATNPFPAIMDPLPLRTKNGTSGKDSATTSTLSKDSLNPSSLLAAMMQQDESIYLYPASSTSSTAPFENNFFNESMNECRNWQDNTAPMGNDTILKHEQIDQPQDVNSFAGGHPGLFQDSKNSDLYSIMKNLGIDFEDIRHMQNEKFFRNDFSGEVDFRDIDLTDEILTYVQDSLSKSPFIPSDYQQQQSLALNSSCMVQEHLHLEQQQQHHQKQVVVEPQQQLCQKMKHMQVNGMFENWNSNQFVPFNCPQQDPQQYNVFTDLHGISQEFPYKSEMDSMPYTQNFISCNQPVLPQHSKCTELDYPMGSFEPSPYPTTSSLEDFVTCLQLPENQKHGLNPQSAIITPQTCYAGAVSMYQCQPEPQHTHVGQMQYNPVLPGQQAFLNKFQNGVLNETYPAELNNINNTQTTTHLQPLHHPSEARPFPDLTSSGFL
Assay: hAHR nuclear translocation assay
Assay type: cell-based
Settings: Jump-In T-REx HEK293 cells expressing AhR-EGFP; 45 min incubation; ratio of EGFP intensity in nuclear over cytosol; 20-point curve
Description: Stable cell lines were established using Jump-In™ T-REx™ HEK293 Retargeting Kit (Life Technologies). hAhR cDNA was cloned into the pJTI R4 CMV-TO EGFP vector. The EGFP was cloned to the C-terminal of AHR to form AhR-EGFP chimera. […] The final DMSO concentration was 0.2%. […] The intensity of EGFP was quantitated by using OPERA PHENIX® or Operetta™ high content image system (Perkin Elmer) with 20× Water Objective and five field per well. […]
State the answer as a number, implicitly in nM.

Below, 8 molecules whose answers are already recorded.
# EC50 (molecule: C[C@H]1CCc2c1cc(C(=O)Nc1cnsc1)c(=O)n2C [Example 21] ) is 4.72

Quick note, EC50 for CC(C)C1CCc2c1cc(C(=O)Nc1ncc(F)cn1)c(=O)n2C (single isomer, unassigned) [Example 113] landed at 11.2

Sure, the documented EC50 for Cn1c2c(c(O)c(C(=O)Nc3ncc(F)cn3)c1=O)C(C)(C)CC2 [Example 43] is 0.973

Entry Cn1c2c(cc(C(=O)Nc3ccccc3)c1=O)CCC2 [Example 108] — recorded EC50 = 2.5

// CC1Cc2c(O)c(C(=O)Nc3ncccn3)c(=O)n(C)c2C1 (single isomer, unassigned) [Example 84] : EC50 value = 8.67

Noted for CC1CCc2c1cc(C(=O)Nc1ccc(C(F)(F)F)nc1)c(=O)n2C (stereo not drawn) [Example 6] : its EC50 reads 4.57

Record C[C@H]1CCc2c1cc(C(=O)Nc1nnc(C(F)(F)F)s1)c(=O)n2C [Example 10] , field EC50: 13.7

Value of EC50 reported for the molecule CC1CCc2c1c(O)c(C(=O)Nc1ncc(C(F)(F)F)cn1)c(=O)n2C (single isomer, unassigned) [Example 97] is 0.709

# evaluate next
Just so you know, measured EC50 for CC1CCc2c1cc(C(=O)Nc1ncccc1F)c(=O)n2C (stereo not drawn) [Example 5] came out at 16.9

The origin of these recorded values is patent US12037322B2.
